read-out: UDP glucuronosyltransferase (UGT1A6), UGT1A6 (gene 54578); assay: LTEA_HepaRG_UGT1A6: Life Technologies and Expression Analysis (LTEA) Assay for UDP glucuronosyltransferase (UGT1A6) using HepaRG (AID 2283539); conditions: mRNA level, 48 h; actives raise or lower the signal
The source made the active and inactive calls. Rule for the calls: active = hit-call score of the fitted dose curve at least 0.9, where 1 is the maximum; inactive = score below 0.9.
One label from this list, please: active, inactive

Q: Could you check what this test reported for "Cn1cc(-c2ccccc2)c(=O)c(-c2cccc(C(F)(F)F)c2)c1" ?
Ans: inactive

Q: Could you check what this test reported for "C1=Cc2cccc3cccc1c23" ?
Ans: inactive

Q: Could you check what this test reported for "c1ccc(N=Nc2ccccc2)cc1" ?
Ans: inactive

Q: Could you check what this test reported for "OCCCBr" ?
Ans: inactive

Q: Could you check what this test reported for "O=[N+]([O-])C(Br)(CO)CO" ?
Ans: inactive

Q: Could you check what this test reported for "N#CC(Br)(Br)C(N)=O" ?
Ans: inactive

Q: Could you check what this test reported for "c1ccc(NNc2ccccc2)cc1" ?
Ans: inactive

Q: Could you check what this test reported for "CCN(CC)CCO" ?
Ans: inactive

Q: Could you check what this test reported for "CN(C)c1ccccc1" ?
Ans: inactive

Q: Could you check what this test reported for "ClCCOCCCl" ?
Ans: inactive

Q: Could you check what this test reported for "O=Cc1ccco1" ?
Ans: inactive

Q: Could you check what this test reported for CCCCCCCCCCCCCN1CC(C)OC(C)C1 (configuration not stated) ?
Ans: inactive

Q: Could you check what this test reported for "Nc1ccc(N=Nc2ccccc2)cc1" ?
Ans: active

Q: Could you check what this test reported for "[Cl-].[Cl-].[Hg+2]" ?
Ans: inactive

Q: Could you check what this test reported for "CNC(=O)Oc1cccc2c1OC(C)(C)C2" ?
Ans: inactive

Q: Could you check what this test reported for "Brc1ccc(Oc2ccccc2)cc1" ?
Ans: inactive

Q: Could you check what this test reported for "N#CC(Br)Br" ?
Ans: inactive

Q: Could you check what this test reported for "CC(C)COC(=O)c1ccccc1C(=O)OCC(C)C" ?
Ans: inactive

Q: Could you check what this test reported for "O=C(Oc1ccc(Br)cc1)N1CCN2CCC1CC2" ?
Ans: inactive

Q: Could you check what this test reported for "CN(C)C(=O)Nc1ccc(Cl)cc1" ?
Ans: inactive

Q: Could you check what this test reported for "CN(C)c1ccc(C(=O)c2ccc(N(C)C)cc2)cc1" ?
Ans: inactive

Q: Could you check what this test reported for CC(O)CCO (configuration not stated) ?
Ans: inactive

Q: Could you check what this test reported for "CC(C)(O)c1cnn2c(-c3ccc(F)c(-c4c(F)cccc4C#N)c3)cnc2n1" ?
Ans: inactive

Q: Could you check what this test reported for CCCCC(CC)COC(=O)c1ccc(C(=O)OCC(CC)CCCC)c(C(=O)OCC(CC)CCCC)c1 (configuration not stated) ?
Ans: inactive

Q: Could you check what this test reported for "Nc1ccc([N+](=O)[O-])cc1" ?
Ans: inactive

Q: Could you check what this test reported for "C=CCc1ccc2c(c1)OCO2" ?
Ans: inactive

Q: Could you check what this test reported for "OCCCl" ?
Ans: inactive

Q: Could you check what this test reported for "Cc1cccc(N)c1N" ?
Ans: inactive

Q: Could you check what this test reported for "O=[N+]([O-])c1ccc(Oc2ccc(Cl)cc2Cl)cc1" ?
Ans: inactive

Q: Could you check what this test reported for "C[C@]12C=CC3=C4CCC(=O)C=C4CC[C@H]3[C@@H]1CC[C@@H]2O" ?
Ans: inactive

Q: Could you check what this test reported for "Cc1cc(N=Nc2ccccc2C)ccc1N" ?
Ans: active

Q: Could you check what this test reported for "O=C1CCCO1" ?
Ans: active

----------
read-out: CYP2C9 (gene 1559); experiment: LTEA_HepaRG_CYP2C9: Life Technologies and Expression Analysis (LTEA) Assay for CYP2C9 using HepaRG (AID 2283484); conditions: mRNA level, 48 h; actives raise or lower the signal
Activity calls are given as the source filed them. The calls were made as follows: active = hit-call score of the fitted dose curve at least 0.9, where 1 is the maximum; inactive = score below 0.9.
One label from this list, please: 1 (active), 0 (inactive)

Q: Could you check what this test reported for "Clc1ccc(C(c2ccc(Cl)cc2)C(Cl)Cl)cc1" ?
Ans: 0

Q: Could you check what this test reported for "OCCOCCO" ?
Ans: 0

Q: Could you check what this test reported for "Oc1ccccc1Cl" ?
Ans: 0

Q: Could you check what this test reported for "Nc1ccc([N+](=O)[O-])cc1" ?
Ans: 0

Q: Could you check what this test reported for CCCCCCCCCCCCCN1CC(C)OC(C)C1 (stereo unspecified) ?
Ans: 0

Q: Could you check what this test reported for "Cc1cccc(N)c1N" ?
Ans: 1

Q: Could you check what this test reported for "OCCCBr" ?
Ans: 0

Q: Could you check what this test reported for "Nc1ccc(N=Nc2ccccc2)cc1" ?
Ans: 1

Q: Could you check what this test reported for "Cc1ccc([N+](=O)[O-])cc1" ?
Ans: 0

Q: Could you check what this test reported for "Nc1cc(Cl)cc(C(=O)O)c1Cl" ?
Ans: 0

Q: Could you check what this test reported for "Nc1ccc(Oc2ccc(N)cc2)cc1" ?
Ans: 0

Q: Could you check what this test reported for CC(O)CCO (stereo unspecified) ?
Ans: 0

Q: Could you check what this test reported for CCC(C)c1ccc(O)cc1 (stereo unspecified) ?
Ans: 0

Q: Could you check what this test reported for "Cc1ccc(N=C=O)cc1N=C=O" ?
Ans: 1

Q: Could you check what this test reported for "CCCCCOC(=O)c1ccccc1C(=O)OCCCCC" ?
Ans: 0

Q: Could you check what this test reported for C[N+](C)(C)CC1CO1 (stereo unspecified) ?
Ans: 0

----------
Read-out: growth arrest and DNA damage 45 (GADD45G), GADD45G (gene 10912)
Test: LTEA_HepaRG_GADD45G: Life Technologies and Expression Analysis (LTEA) Assay for growth arrest and DNA damage 45 (GADD45G) using HepaRG (AID 2283499)
Conditions: mRNA level, 48 h; actives raise or lower the signal
Procedure: LTEA_HepaRG is a cell based, multiplexed-readout assay that uses HepaRG, a human liver cell line, with measurements taken at 48 hours after chemical dosing on a 96-well plate.LTEA_HepaRG_GADD45G is one of 102 assay component(s) measured in the LTEA HepaRG cell culture assay. It is a marker of Cell proliferation, survival, death.Data from the assay component LTEA_HepaRG_GADD45G was analyzed into 1 endpoint. […]
Calls of active or inactive are those of the source. Rule for the calls: active = hit-call score of the fitted dose curve at least 0.9, where 1 is the maximum; inactive = score below 0.9.
One label from this list, please: Y = active, N = inactive

Q: Could you check what this test reported for ClC1=C(Cl)C2(Cl)C3C(Cl)C=CC3C1(Cl)C2(Cl)Cl (stereo unspecified) ?
Ans: N

Q: Could you check what this test reported for "O=[N+]([O-])C(Br)(CO)CO" ?
Ans: N

Q: Could you check what this test reported for "Oc1ccc2ccc3cccc4ccc1c2c34" ?
Ans: N

Q: Could you check what this test reported for C[N+](C)(C)CC1CO1 (stereo unspecified) ?
Ans: N

Q: Could you check what this test reported for "c1ccc2c(c1)oc1ccccc12" ?
Ans: N

Q: Could you check what this test reported for "[As]#[In]" ?
Ans: N

Q: Could you check what this test reported for "Clc1ccc(C(c2ccc(Cl)cc2)C(Cl)Cl)cc1" ?
Ans: N

Q: Could you check what this test reported for "OCCOCCO" ?
Ans: N

Q: Could you check what this test reported for "COC(=O)c1ccccc1N" ?
Ans: N

Q: Could you check what this test reported for "CCC[CH2][Sn]([Cl])([CH2]CCC)[CH2]CCC" ?
Ans: Y

Q: Could you check what this test reported for "OCCCl" ?
Ans: N

Q: Could you check what this test reported for "Nc1ccc(Cl)cc1N" ?
Ans: Y

Q: Could you check what this test reported for CCC(C)c1ccc(O)cc1 (stereo unspecified) ?
Ans: N

Q: Could you check what this test reported for "CCCCCOC(=O)c1ccccc1C(=O)OCCCCC" ?
Ans: N

Q: Could you check what this test reported for "C=CCc1ccc2c(c1)OCO2" ?
Ans: N

Q: Could you check what this test reported for "Nc1ccc(N=Nc2ccccc2)cc1" ?
Ans: Y

----------
read-out: Monocyte Chemoattractant Protein-1 (MCP1), CCL2 (gene 6347); assay: BSK_SAg_MCP1: BioMAP Diversity Plus: SAg Assay for Monocyte Chemoattractant Protein-1 (MCP1) Biomarker Activity (AID 2283090); conditions: primary human HUVEC with PBMC; actives raise or lower the signal
Calls of active or inactive are those of the source. How the source made its calls: active means hit-call score of the fitted dose curve at least 0.9, where 1 is the maximum; inactive means score below 0.9.
measured.property: AC50

Consider the following illustrative entries.
[
  {
    "compound": "Nc1ccc(Oc2ccc(N)cc2)cc1",
    "measured.property": "AC50",
    "result": "inactive"
  },
  {
    "compound": "Nc1ccc(Cl)cc1N",
    "measured.property": "AC50",
    "result": "3.7 µM (active)"
  },
  {
    "compound": "CCCCCCCCCCCCCN1CC(C)OC(C)C1 (configuration not stated)",
    "measured.property": "AC50",
    "result": "inactive"
  },
  {
    "compound": "CC(C)COC(=O)c1ccccc1C(=O)OCC(C)C",
    "measured.property": "AC50",
    "result": "inactive"
  },
  {
    "compound": "N#CC(Br)Br",
    "measured.property": "AC50",
    "result": "inactive"
  },
  {
    "compound": "CCOC(=O)[C@]1(c2ccccc2)Oc2ccccc2[C@@H]1N",
    "measured.property": "AC50",
    "result": "30.1 µM (active)"
  }
]

Please examine the following record next.
Q: Could you share which AC50 value was measured for "CC(C)N(Cc1ccccc1)C(=O)C(C)(C)C" ?
Ans: inactive
